- Target under test: UniProt:P33535
- Sequence (P33535 whole entry): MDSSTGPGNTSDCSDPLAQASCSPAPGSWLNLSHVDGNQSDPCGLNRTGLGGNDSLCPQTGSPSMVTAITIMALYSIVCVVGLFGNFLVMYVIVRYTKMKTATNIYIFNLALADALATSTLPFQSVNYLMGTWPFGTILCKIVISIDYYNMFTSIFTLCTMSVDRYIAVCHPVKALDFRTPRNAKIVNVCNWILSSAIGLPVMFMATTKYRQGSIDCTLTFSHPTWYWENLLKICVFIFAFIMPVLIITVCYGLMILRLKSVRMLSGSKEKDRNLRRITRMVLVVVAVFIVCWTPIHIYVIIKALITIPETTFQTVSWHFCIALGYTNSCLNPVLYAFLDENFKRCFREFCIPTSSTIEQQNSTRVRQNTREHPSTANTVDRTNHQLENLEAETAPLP
- Assay summary: [35S]-GTPγS binding assay
- Format: biochemical
- Assay conditions: [35S]-GTPγS stimulation relative to DAMGO
Experimental readout: MOR efficacy (in words)

Below: 5 molecules and their reported MOR efficacy (in words).
[
  {
    "Structure smiles string": "CC(=O)N1CC[C@@H](NC(=O)[C@@H](N)Cc2c(C)cc(O)cc2C)c2cc(Cc3cc4ccccc4o3)ccc21.O=C(O)C(F)(F)F",
    "Value measured": "MOR agonists"
  },
  {
    "Structure smiles string": "Cc1cc(O)cc(C)c1C[C@H](N)C(=O)N[C@@H]1CCN(C(=O)C2CC2)c2ccc(Cc3cc4ccccc4o3)cc21.O=C(O)C(F)(F)F",
    "Value measured": "MOR agonists"
  },
  {
    "Structure smiles string": "Cc1cc(O)cc(C)c1C[C@H](N)C(=O)N[C@@H]1CCN(S(C)(=O)=O)c2ccc(Cc3cc4ccccc4o3)cc21.O=C(O)C(F)(F)F",
    "Value measured": "MOR agonists"
  },
  {
    "Structure smiles string": "Cc1cc(O)cc(C)c1C[C@H](N)C(=O)N[C@@H]1CCNc2ccc(Cc3cc4ccccc4o3)cc21.O=C(O)C(F)(F)F",
    "Value measured": "MOR agonists"
  },
  {
    "Structure smiles string": "Cc1cc(O)cc(C)c1C[C@H](N)C(=O)N[C@@H]1CCN(C(=O)c2ccccc2)c2ccc(Cc3ccc4ccccc4c3)cc21.O=C(O)C(F)(F)F",
    "Value measured": "partial MOR efficacy"
  }
]

"Cc1cc(O)cc(C)c1C[C@H](N)C(=O)N[C@@H]1CCN(C(=O)c2ccccc2)c2ccc(Cc3cnc4ccccc4c3)cc21.O=C(O)C(F)(F)F" has a reported MOR efficacy (in words) of partial MOR efficacy

---

- Target under test: rat DOR (C6-DOR membranes) (Rattus norvegicus)
- Sequence (P33533 whole entry): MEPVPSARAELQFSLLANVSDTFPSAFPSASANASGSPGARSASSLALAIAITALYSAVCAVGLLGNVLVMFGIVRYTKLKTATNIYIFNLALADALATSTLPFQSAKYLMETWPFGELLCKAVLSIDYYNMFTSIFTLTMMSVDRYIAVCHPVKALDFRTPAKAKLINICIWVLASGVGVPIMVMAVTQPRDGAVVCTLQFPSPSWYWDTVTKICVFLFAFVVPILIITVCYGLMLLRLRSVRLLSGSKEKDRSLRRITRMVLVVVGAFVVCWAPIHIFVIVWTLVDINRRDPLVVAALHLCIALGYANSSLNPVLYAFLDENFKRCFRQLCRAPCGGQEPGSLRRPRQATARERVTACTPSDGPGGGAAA
- Assay summary: [35S]-GTPγS binding assay
- Type: biochemical
- Assay conditions: [35S]-GTPγS stimulation relative to DPDPE at 10 μM
Experimental readout: DOR efficacy (in words)

[
  {
    "Molecule": "Cc1cc(O)cc(C)c1C[C@H](N)C(=O)N[C@@H]1CCNc2ccc(Cc3cc4ccccc4o3)cc21.O=C(O)C(F)(F)F [Compound 1F]",
    "Target under test": "rat DOR (C6-DOR membranes) (Rattus norvegicus)",
    "Experimental readout": "DOR efficacy (in words)",
    "Value measured": "DOR antagonists"
  },
  {
    "Molecule": "Cc1cc(O)cc(C)c1C[C@H](N)C(=O)N[C@@H]1CCN(S(C)(=O)=O)c2ccc(Cc3cc4ccccc4o3)cc21.O=C(O)C(F)(F)F [Compound 4F]",
    "Target under test": "rat DOR (C6-DOR membranes) (Rattus norvegicus)",
    "Experimental readout": "DOR efficacy (in words)",
    "Value measured": "DOR antagonists"
  }
]
